Source listed as the supplement of paper PMC10567573.

B1: RSPH3 (parent)
chain: LELQRQREARKRALARKQAQEQLR

variants of: B1; test: protein stability index of a GFP-peptide fusion (GPS, HEK-293T) (PSI 1-6); higher = more stable; conditions: c terminus: a fixed tail appended;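 further: lentivirally expressed fusions sorted by FACS into six bins by GFP to DsRed ratio, PSI derived from sequencing read proportions per bin multiplied by bin number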
Please respond with reported protein stability index for every item in the list.
No unit in the answer, only the number.

Query string: So what's the measured protein stability index for this one? Q6K
Result string: 4.63

Query string: Another variant: A9L
Result string: 3.47

Query string: Another variant: E21D
Result string: 3.62

Query string: Another variant: L3T
Result string: 4.35

Query string: Another variant: L1A
Result string: 3.16

Query string: Another variant: K17S
Result string: 4.21

Query string: Another variant: A13I
Result string: 3.76

Query string: Another variant: K11Y
Result string: 3.07

Query string: Another variant: L14M
Result string: 3.32

Query string: Another variant: Q22H
Result string: 2.95

Query string: Another variant: E8G
Result string: 3.66

Query string: Another variant: E21L
Result string: 3.48

Query string: Another variant: R7C
Result string: 3.87

Query string: Another variant: R16A
Result string: 4.19

Query string: Another variant: R12I
Result string: 4.21

Query string: Another variant: L14W
Result string: 2.65

Query string: Another variant: K17I
Result string: 3.77

Query string: Another variant: L23M
Result string: 4.31

Query string: Another variant: R5A
Result string: 5.05

Query string: Another variant: L14R
Result string: 4.4

Query string: Another variant: A9V
Result string: 3.71

Query string: Another variant: R16T
Result string: 4.02

Query string: Another variant: R12A
Result string: 4.23

Query string: Another variant: K11F
Result string: 3.46

Query string: Another variant: Q22V
Result string: 3.37

Query string: Another variant: Q22F
Result string: 3.04

Query string: Another variant: L1C
Result string: 4.05

Query string: Another variant: Q4Y
Result string: 3.03

Query string: Another variant: R5N
Result string: 3.72

Query string: Another variant: Q20P
Result string: 4.32

Query string: Another variant: L1Y
Result string: 3.76

Query string: Another variant: L23V
Result string: 2.77

Query string: Another variant: R12C
Result string: 3.9

Query string: Another variant: R7W
Result string: 3.46

Query string: Another variant: A9M
Result string: 3.84

Query string: Another variant: E2W
Result string: 2.59

Query string: Another variant: R7Q
Result string: 4.01

Query string: Another variant: R5G
Result string: 4.34

Query string: Another variant: Q4R
Result string: 4.02

Query string: Another variant: L3C
Result string: 3.12

Query string: Another variant: Q20T
Result string: 3.79

Query string: Another variant: K17D
Result string: 3.92

Query string: Another variant: A19G
Result string: 3.53

Query string: Another variant: E21T
Result string: 3.81

Query string: Another variant: Q18C
Result string: 2.81

Query string: Another variant: R16I
Result string: 3.7
